method_summary: Aqueous thermodynamic solubility, miniaturized shake-flask method with HPLC
Type: physicochemical
settings: aqueous phosphate buffer, 25 °C, pH 7.4, aqueous buffer, thermodynamic from solid, pH 7.4, shake flask
result_type: solubility (µM)

compound: Cn1ccnc1Sc1ncnc2sccc12 [Compound 8c]
result_type: solubility
relational_operator: >
reported_result: 1000
//
compound: c1coc(Sc2ncnc3sccc23)n1 [Compound 8e]
result_type: solubility
relational_operator: =
reported_result: 1330

* * *

System: THP-1 cells
method_summary: Cytotoxicity assay: human THP-1 cell line (Alamar Blue)
Assay type: cell-based
settings: Homo sapiens, THP-1; cytotoxicity, 48 h
Just a reminder that ties go to not fulfilled: only IC50 strictly below 30 µM counts as fulfilled.

smiles_record: Cn1ccnc1Sc1ncnc2sccc12
test_target: THP-1 cells
assigned_class: not fulfilled
//
smiles_record: Nc1nnc(Sc2ncnc3sccc23)s1
test_target: THP-1 cells
assigned_class: fulfilled
//
smiles_record: c1coc(-c2nnc(Sc3ncnc4sccc34)o2)c1
test_target: THP-1 cells
assigned_class: fulfilled
//
smiles_record: c1ccc2[nH]c(Sc3ncnc4sccc34)nc2c1
test_target: THP-1 cells
assigned_class: fulfilled
//
smiles_record: c1csc(Sc2ncnc3sccc23)n1
test_target: THP-1 cells
assigned_class: fulfilled
//
smiles_record: c1cnc2[nH]c(Sc3ncnc4sccc34)nc2c1
test_target: THP-1 cells
assigned_class: fulfilled
//
smiles_record: c1coc(Sc2ncnc3sccc23)n1
test_target: THP-1 cells
assigned_class: not fulfilled

* * *

method_summary: Aqueous thermodynamic solubility, miniaturized shake-flask method with HPLC
Format: physicochemical
settings: aqueous phosphate buffer, 25 °C, pH 7.4, aqueous buffer, thermodynamic from solid, aqueous buffer pH 7.4, shake flask; read-out: Log S0, exp (converted)
result_type: solubility thermodynamic (µM)

smiles_record: Cn1ccnc1Sc1ncnc2sccc12
reported_result: 1780

* * *

Tested on: Plasmodium falciparum parasites (3D7 strain)
method_summary: Coenzyme A rescue assay (imaging-based growth inhibition, with or without 0.8 mM CoA)
Assay type: cell-based
settings: Plasmodium falciparum, 3D7, 72 h, 0.8 mM CoA (rescue), 72 h; read-out: IC50 [µM], Pf3D7 + 0.8 mM CoA
Just a reminder that ties go to false (0): only IC50 strictly below 2 µM counts as true (1).

compound: COc1ccc(C[C@H](N)C(=O)N[C@H]2[C@@H](O)[C@H](n3cnc4c(N(C)C)ncnc43)O[C@@H]2CO)cc1 [Puromyc, puromycin, reference compound]
assigned_class: true (1)
--
compound: c1coc(-c2nnc(Sc3ncnc4sccc34)o2)c1
assigned_class: false (0)
--
compound: c1coc(Sc2ncnc3sccc23)n1
assigned_class: false (0)
--
compound: c1csc(Sc2ncnc3sccc23)n1
assigned_class: false (0)
--
compound: Nc1nnc(Sc2ncnc3sccc23)s1
assigned_class: false (0)
--
compound: c1coc(-c2nc(Sc3ncnc4sccc34)n[nH]2)c1
assigned_class: false (0)
--
compound: c1ccc2[nH]c(Sc3ncnc4sccc34)nc2c1
assigned_class: true (1)
--
compound: c1cnc2[nH]c(Sc3ncnc4sccc34)nc2c1
assigned_class: true (1)
--
compound: Cc1csc(Sc2ncnc3sccc23)n1 [Amb180780, reference compound]
assigned_class: true (1)
--
compound: Cn1ccnc1Sc1ncnc2sccc12
assigned_class: false (0)
--
compound: C[C@@H]1CC[C@H]2[C@@H](C)C(=O)O[C@@H]3O[C@@]4(C)CC[C@@H]1[C@]32OO4 [Artemis, artemisinin, reference compound]
assigned_class: true (1)
